- experimental.details: qHTS drug screen for cell cycle checkpoint inhibitors in PARPi-resistant BRCA-mutant ovarian cancer cell lines. (AID 1963452)
- assay.conditions: PEO1/OlaR viability, CellTiter-Glo luminescence, 96 h; measured here: PEO1 parental Z-AUC; stronger effect = lower value
Parameter: Z-AUC. Scope: all listed entries.
Kindly provide the number alone.

compound: NC1=NC(=O)N2CC12 (stereo unspecified)
Z-AUC: -0.747

Query: Would you kindly share the measured Z-AUC for `O=c1[nH]c2ccccc2n1C1CCN(Cc2ccc(-c3[nH]c4cc5ncnc5cc4nc3-c3ccccc3)cc2)CC1` ?
Response: -0.392

Query: Would you kindly share the measured Z-AUC for `O=C(O)CNC(=O)c1c(O)c2ccccc2n(Cc2ccccc2)c1=O` ?
Response: 0.683

Query: Would you kindly share the measured Z-AUC for `O=C1C=CC[C@@H]2[C@H]3CCCN4CCC[C@@H](CN12)[C@@H]34` ?
Response: 1.52

Query: Would you kindly share the measured Z-AUC for `CC(C)[C@]12O[C@H]1[C@@H]1O[C@]13[C@]1(O[C@H]1C[C@H]1C4=C(CC[C@@]13C)C(=O)OC4)[C@@H]2O` ?
Response: -2.59

Query: Would you kindly share the measured Z-AUC for `c1ccc2c(CN3CCNCC3)cccc2c1` ?
Response: -0.119

* * *

- experimental.details: Quantitative High-Throughput drug screen in 47 multiple myeloma cell lines against the NCATS MIPE library collection: PCM6_Riken cell viability assay (AID 1919870); further: nearly all actives have a fitted effect of over 30% in size
- assay.conditions: CellTiter-Glo ATP, 48 h; series mostly up to 45.8 µM
Inconclusive results are not listed. Calls of active or inactive are those of the source. The call rests on the fitted dose curve; in most records, active means well fitted cell-killing curve with a large enough effect; inconclusive means small, poorly fitted or top-dose-only effect, or effect the other way; inactive means no such curve, though single readings can be large or run the other way.
Your answer must be one of the following: label 1 for active, label 0 for inactive

Consider the worked cases shown below.
structure.string: COc1cc2cc(c1Cl)N(C)C(=O)C[C@H](OC(=O)C(C)C)[C@]1(C)O[C@H]1[C@H](C)[C@@H]1C[C@@](O)(NC(=O)O1)[C@H](OC)C=CC=C(C)C2
label: label 0
--
structure.string: COc1cccc2c1[C@]13CCN(CC4CC4)[C@H](C2)[C@]1(OC)CCC(=O)C3
label: label 0
--
structure.string: C[C@@H]1O[C@@H](O[C@@H]2C=C3CC[C@@H]4[C@@H](CC[C@]5(C)[C@H](c6ccc(=O)oc6)CC[C@@]45O)[C@@]3(C)CC2)[C@H](O)[C@H](O)[C@H]1O
label: label 1

API: the following record is the query input.
Query: // outcome(item) with item = `Cc1c(C(=O)c2cccc3ccccc23)c2cccc3c2n1[C@H](CN1CCOCC1)CO3`
Response: label 0

* * *

- System: CP268
- experimental.details: qHTS profiling for inhibitors of Plasmodium falciparum proliferation (AID 504749); further: nearly all actives have a fitted effect of over 60% in size
- assay.conditions: P. falciparum in erythrocytes, SYBR Green DNA, 72 h; series mostly up to 28.7 µM
Inconclusive results are not listed. Calls of active or inactive are those of the source. Calls follow the shape of the dose curve; as a rule, active = well fitted inhibition curve with a large enough effect; inconclusive = small, poorly fitted or top-dose-only effect; inactive = flat fitted curve, though single readings scatter.
Your answer must be one of the following: true (1) for active, false (0) for inactive

Consider the worked cases shown below.
compound: Cc1cc(O)ccc1Cl
label: false (0)

compound: NC(=O)CN1CC(O)CC1=O (stereo unspecified)
label: false (0)

compound: COC(=O)c1cncn1C(C)c1ccccc1 (stereo unspecified)
label: false (0)

compound: C[C@]12CCC(=O)C(O)=C1CC[C@@H]1[C@H]3CCC(=O)[C@@]3(C)CC[C@@H]12
label: false (0)

compound: CN1C2CCC1CC(OC(=O)c1cc(Cl)cc(Cl)c1)C2 (stereo unspecified)
label: false (0)

Query: // outcome(item) with item = `CCCCCCCCCCCCCCCC[N+](C)(C)C`
Response: true (1)

Query: // outcome(item) with item = `CCCCc1ccc(C(=O)O)nc1`
Response: false (0)

* * *

- experimental.system: ATPase family AAA domain-containing protein 5 (Homo sapiens) (UniProt Q96QE3)
- Sequence (Q96QE3 whole entry, looked up, the tested form may be a part): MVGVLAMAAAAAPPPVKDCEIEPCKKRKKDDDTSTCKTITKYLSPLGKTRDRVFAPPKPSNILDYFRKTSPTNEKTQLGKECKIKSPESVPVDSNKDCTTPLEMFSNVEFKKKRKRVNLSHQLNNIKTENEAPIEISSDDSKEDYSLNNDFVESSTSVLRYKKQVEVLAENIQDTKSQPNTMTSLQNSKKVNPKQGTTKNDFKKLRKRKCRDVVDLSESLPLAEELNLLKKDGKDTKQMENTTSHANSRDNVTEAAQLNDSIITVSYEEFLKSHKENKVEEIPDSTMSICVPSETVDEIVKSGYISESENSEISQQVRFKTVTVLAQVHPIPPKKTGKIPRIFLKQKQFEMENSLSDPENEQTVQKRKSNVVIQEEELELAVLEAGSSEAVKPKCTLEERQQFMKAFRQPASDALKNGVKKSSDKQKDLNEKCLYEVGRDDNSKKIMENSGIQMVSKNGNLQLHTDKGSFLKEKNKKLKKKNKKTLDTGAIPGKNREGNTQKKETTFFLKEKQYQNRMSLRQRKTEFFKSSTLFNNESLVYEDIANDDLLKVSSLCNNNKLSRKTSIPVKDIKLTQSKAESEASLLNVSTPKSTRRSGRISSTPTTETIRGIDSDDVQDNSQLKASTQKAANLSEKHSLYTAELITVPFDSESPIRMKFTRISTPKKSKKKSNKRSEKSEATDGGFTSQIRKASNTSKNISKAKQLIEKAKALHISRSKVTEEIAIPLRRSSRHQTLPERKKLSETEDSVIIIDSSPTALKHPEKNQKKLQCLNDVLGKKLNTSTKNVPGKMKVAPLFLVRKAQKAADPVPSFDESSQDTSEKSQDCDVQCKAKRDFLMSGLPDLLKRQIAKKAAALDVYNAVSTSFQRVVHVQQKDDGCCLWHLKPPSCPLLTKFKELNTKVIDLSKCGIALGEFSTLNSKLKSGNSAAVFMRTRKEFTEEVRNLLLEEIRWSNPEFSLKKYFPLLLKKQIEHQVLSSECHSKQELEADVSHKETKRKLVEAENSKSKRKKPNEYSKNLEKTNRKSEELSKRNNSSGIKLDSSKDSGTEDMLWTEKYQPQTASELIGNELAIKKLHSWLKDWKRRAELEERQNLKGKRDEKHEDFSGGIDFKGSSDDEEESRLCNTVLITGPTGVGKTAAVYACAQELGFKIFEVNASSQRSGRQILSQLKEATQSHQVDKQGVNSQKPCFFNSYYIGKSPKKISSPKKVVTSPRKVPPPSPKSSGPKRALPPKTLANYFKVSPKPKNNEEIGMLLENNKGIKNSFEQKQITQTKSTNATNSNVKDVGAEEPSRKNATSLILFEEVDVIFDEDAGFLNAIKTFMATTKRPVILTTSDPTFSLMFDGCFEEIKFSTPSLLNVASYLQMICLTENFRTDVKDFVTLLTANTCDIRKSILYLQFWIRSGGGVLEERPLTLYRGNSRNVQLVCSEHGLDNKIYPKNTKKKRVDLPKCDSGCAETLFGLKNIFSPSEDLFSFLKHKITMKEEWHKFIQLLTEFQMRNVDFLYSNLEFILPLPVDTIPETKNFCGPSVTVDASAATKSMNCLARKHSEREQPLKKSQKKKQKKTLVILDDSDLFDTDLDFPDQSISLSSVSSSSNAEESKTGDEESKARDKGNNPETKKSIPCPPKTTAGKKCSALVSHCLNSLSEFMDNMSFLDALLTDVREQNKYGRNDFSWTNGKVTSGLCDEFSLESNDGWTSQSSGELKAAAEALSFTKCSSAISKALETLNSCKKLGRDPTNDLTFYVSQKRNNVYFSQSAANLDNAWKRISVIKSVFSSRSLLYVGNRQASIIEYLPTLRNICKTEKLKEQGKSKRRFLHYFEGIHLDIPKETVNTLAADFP
- experimental.details: Validation screen for small molecules that inhibit ELG1-dependent DNA repair in human embryonic kidney (HEK293T) cells expressing luciferase-tagged ELG1 (AID 493107); further: nearly all actives have a fitted effect of over 70% in size
- assay.conditions: HEK293T ELG1-luciferase level, luminescence, 5-fluorouridine co-treatment, 16 h; series mostly up to 46.1 µM
Results filed as inconclusive are left out. The source made the active and inactive calls. Calls come from the whole dose curve; as a rule, active = well fitted inhibition curve with a large enough effect; inconclusive = small, poorly fitted or top-dose-only effect, or effect the other way; inactive = flat fitted curve, though single readings scatter.
Your answer must be one of the following: TRUE for active, FALSE for inactive

compound: C[C@@H]1O[C@H](C[N+](C)(C)C)C[C@H]1O
label: FALSE
//
compound: C[N+]1(C)C2CCC1CC(OC(=O)C(CO)c1ccccc1)C2 (centres undefined)
label: FALSE
//
compound: NC(=O)CN1CC(O)CC1=O (centres undefined)
label: FALSE

Query: // outcome(item) with item = `Cc1nccc2c1[nH]c1ccccc12`
Response: TRUE

Query: // outcome(item) with item = `NCc1cc(=O)[nH]o1`
Response: FALSE

Query: // outcome(item) with item = `C#CCOC(=O)C1=CCCN(C)C1`
Response: FALSE

Query: // outcome(item) with item = `Cn1cnc(CCN)c1`
Response: FALSE

Query: // outcome(item) with item = NC(N)=NOCCC(N)C(=O)O (centres undefined)
Response: FALSE

Query: // outcome(item) with item = `CN[C@@H]1C[C@@H](c2ccc(Cl)c(Cl)c2)c2ccccc21`
Response: TRUE

Query: // outcome(item) with item = NC1CC1c1ccccc1 (centres undefined)
Response: FALSE

Query: // outcome(item) with item = CS(=N)(=O)CC[C@H](N)C(=O)O (some centres undefined)
Response: FALSE

* * *

- experimental.details: Quantitative High-Throughput drug screen in 47 multiple myeloma cell lines against the NCATS MIPE library collection: Karpas620_DSMZ cell viability assay (AID 1918959); further: nearly all actives have a fitted effect of over 30% in size
- assay.conditions: Karpas620 myeloma viability, CellTiter-Glo ATP luminescence, 48 h; series mostly up to 45.8 µM
Results filed as inconclusive are left out. Calls of active or inactive are those of the source. Calls follow the shape of the dose curve; as a rule, active = well fitted cell-killing curve with a large enough effect; inconclusive = small, poorly fitted or top-dose-only effect, or effect the other way; inactive = no such curve, though single readings can be large or run the other way.
Your answer must be one of the following: active, inactive

Query: // outcome(item) with item = `Oc1ccc2c3c1O[C@H]1c4[nH]c5c(c4C[C@@]4(O)[C@@H](C2)N(CC2CC2)CC[C@]314)C[C@@]1(O)[C@H]2Cc3ccc(O)c4c3[C@@]1(CCN2CC1CC1)[C@H]5O4`
Response: inactive

Query: // outcome(item) with item = `CC[C@H]1C=CC=CC[C@@H](C)[C@H](O)[C@@](C)(O)C(=O)[C@@H](C)[C@H](O)[C@@H](C)C(=O)[C@@H](C)[C@H](O)[C@@H](C)C=CC(=O)O[C@@H]2[C@@H](C)[C@H](CC1)O[C@]1(CC[C@H](C)[C@H](C[C@@H](C)O)O1)[C@H]2C`
Response: active

Query: // outcome(item) with item = `CC[C@@H]1[C@@H](C)O[C@@](O)([C@@H](C)[C@H](O)[C@H](C)[C@H]2OC(=O)C=CC=C[C@@H](C)[C@@H]([C@@H](C)[C@@H](O)[C@H](C)[C@@]3(O)C[C@H](O[C@H]4C[C@H](O)[C@H](O)[C@H](C)O4)[C@H](CC)[C@@H](C)O3)OC(=O)C=CC=C[C@@H]2C)C[C@H]1O[C@H]1C[C@H](O)[C@H](O)[C@H](C)O1`
Response: active

Query: // outcome(item) with item = COCC1(CO)C(=O)C2CCN1CC2 (stereo not drawn)
Response: active

* * *

- experimental.details: Quantitative High-Throughput drug screen in 47 multiple myeloma cell lines against the NCATS MIPE library collection: XG1_PLB cell viability assay (AID 1919866); further: nearly all actives have a fitted effect of over 35% in size
- assay.conditions: CellTiter-Glo ATP, 48 h; series mostly up to 45.8 µM
Records with an inconclusive call do not appear. Activity calls are given as the source filed them. Calls come from the whole dose curve; as a rule, active = well fitted cell-killing curve with a large enough effect; inconclusive = small, poorly fitted or top-dose-only effect, or effect the other way; inactive = no such curve, though single readings can be large or run the other way.
Your answer must be one of the following: active, inactive

Consider the worked cases shown below.
molecule: Cc1c(N)nc([C@H](CC(N)=O)NC[C@@H](N)C(N)=O)nc1C(=O)N[C@H](C(=O)N[C@@H](C)[C@H](O)[C@@H](C)C(=O)N[C@@H](C(=O)NCCc1nc(-c2nc(C(=O)NCCC[S+](C)C)cs2)cs1)[C@@H](C)O)C(O[C@H]1O[C@H](CO)[C@H](O)[C@@H](O)[C@@H]1O[C@H]1O[C@H](CO)[C@@H](O)[C@H](OC(N)=O)[C@H]1O)c1cnc[nH]1 (stereo partly drawn)
label: active
//
molecule: CC1(N2CCC(n3c([C@@H]4CCCNC4)nc4ccccc43)CC2)CCCCCCC1
label: active

API: the following record is the query input.
Query: // outcome(item) with item = `c1ccc2c(CN3CCNCC3)cccc2c1`
Response: inactive

* * *

- experimental.details: Quantitative High-Throughput drug screen in 47 multiple myeloma cell lines against the NCATS MIPE library collection: XG1_PLB cell viability assay (AID 1919866); further: nearly all actives have a fitted effect of over 35% in size; further: potency means the concentration at half of the fitted maximal effect
- assay.conditions: CellTiter-Glo ATP, 48 h; series mostly up to 45.8 µM
- Excerpt: PI: Beverly A. Mock Ph.D. Laboratory of Cancer Biology and Genetics, Center for Cancer Research, National Cancer Institute, National Institute of Health, Bethesda, Maryland […] 5; Detector; 425V; Luminescence; Viewlux PerkinElmer. […] 1. […] Briefly, the corresponding myeloma cell lines were screened in 1,536-well plates with 500 cells, 5-uL per well for inhibition of cell viability (assessed by measuring ATP levels with CellTiterGlo). […]
Inconclusive results are not listed. The source made the active and inactive calls. Calls come from the whole dose curve; as a rule, active = well fitted cell-killing curve with a large enough effect; inconclusive = small, poorly fitted or top-dose-only effect, or effect the other way; inactive = no such curve, though single readings can be large or run the other way.
assay.endpoint: Potency

Before answering, review these 4 worked examples.
compound: CC=C(C)C(=O)O[C@H]1C(C)=C2[C@@H]3OC(=O)[C@@](C)(O)[C@@]3(O)[C@@H](OC(=O)CCC)C[C@](C)(OC(C)=O)[C@@H]2[C@@H]1OC(=O)CCCCCCC
value.measured: 0.0469 µM (active)

compound: COc1ccc2c(c[n+](C)c3c4cc5c(cc4ccc23)OCO5)c1OC
value.measured: 2.64 µM (active)

compound: CC(N[C@H]1C[C@H]1c1ccccc1)c1ccc2c(c1)OCCO2 (stereo not given in full)
value.measured: inactive

compound: CCOP(=O)(OCC)C(C)NC(=O)N(CCCl)N=O (stereo not given)
value.measured: inactive

# next compound below
Query: Would you kindly share the measured Potency for COCC1(CO)C(=O)C2CCN1CC2 (stereo not given) ?
Response: 20.9 µM (active)
